# TARGET DESC: rat collagen (acid soluble, type I, rat tail, Upstate 08-115) (rat) (UniProt P02454)
# Sequence (P02454 152-1207, chain 1 of 2): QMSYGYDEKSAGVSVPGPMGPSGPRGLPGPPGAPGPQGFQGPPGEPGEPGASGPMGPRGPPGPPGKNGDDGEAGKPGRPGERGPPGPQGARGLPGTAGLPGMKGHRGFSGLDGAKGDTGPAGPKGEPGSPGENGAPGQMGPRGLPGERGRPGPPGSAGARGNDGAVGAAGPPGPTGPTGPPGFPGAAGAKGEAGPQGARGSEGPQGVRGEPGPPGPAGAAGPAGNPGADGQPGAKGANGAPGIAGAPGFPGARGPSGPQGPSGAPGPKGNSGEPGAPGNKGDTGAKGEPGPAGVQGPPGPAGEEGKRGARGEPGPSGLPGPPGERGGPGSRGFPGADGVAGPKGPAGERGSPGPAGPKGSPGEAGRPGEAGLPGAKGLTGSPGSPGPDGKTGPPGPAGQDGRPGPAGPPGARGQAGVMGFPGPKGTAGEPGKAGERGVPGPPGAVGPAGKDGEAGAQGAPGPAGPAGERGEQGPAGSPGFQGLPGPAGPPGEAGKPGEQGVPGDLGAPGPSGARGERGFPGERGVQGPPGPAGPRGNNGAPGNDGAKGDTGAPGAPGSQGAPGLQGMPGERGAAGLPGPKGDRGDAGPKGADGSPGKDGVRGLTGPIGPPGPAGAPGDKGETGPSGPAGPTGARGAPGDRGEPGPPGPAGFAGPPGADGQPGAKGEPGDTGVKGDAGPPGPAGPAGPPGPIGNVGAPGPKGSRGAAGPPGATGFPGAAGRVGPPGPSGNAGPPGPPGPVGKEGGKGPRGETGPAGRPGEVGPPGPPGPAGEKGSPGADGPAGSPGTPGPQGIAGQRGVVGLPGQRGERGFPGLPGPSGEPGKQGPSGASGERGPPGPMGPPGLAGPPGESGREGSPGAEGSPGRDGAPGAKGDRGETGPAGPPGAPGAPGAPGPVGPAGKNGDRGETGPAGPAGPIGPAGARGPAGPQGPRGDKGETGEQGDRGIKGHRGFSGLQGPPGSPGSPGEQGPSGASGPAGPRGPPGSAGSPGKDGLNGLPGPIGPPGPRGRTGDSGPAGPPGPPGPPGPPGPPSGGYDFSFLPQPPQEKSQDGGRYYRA
# Sequence (P02466 86-1125, chain 2 of 2, further chain): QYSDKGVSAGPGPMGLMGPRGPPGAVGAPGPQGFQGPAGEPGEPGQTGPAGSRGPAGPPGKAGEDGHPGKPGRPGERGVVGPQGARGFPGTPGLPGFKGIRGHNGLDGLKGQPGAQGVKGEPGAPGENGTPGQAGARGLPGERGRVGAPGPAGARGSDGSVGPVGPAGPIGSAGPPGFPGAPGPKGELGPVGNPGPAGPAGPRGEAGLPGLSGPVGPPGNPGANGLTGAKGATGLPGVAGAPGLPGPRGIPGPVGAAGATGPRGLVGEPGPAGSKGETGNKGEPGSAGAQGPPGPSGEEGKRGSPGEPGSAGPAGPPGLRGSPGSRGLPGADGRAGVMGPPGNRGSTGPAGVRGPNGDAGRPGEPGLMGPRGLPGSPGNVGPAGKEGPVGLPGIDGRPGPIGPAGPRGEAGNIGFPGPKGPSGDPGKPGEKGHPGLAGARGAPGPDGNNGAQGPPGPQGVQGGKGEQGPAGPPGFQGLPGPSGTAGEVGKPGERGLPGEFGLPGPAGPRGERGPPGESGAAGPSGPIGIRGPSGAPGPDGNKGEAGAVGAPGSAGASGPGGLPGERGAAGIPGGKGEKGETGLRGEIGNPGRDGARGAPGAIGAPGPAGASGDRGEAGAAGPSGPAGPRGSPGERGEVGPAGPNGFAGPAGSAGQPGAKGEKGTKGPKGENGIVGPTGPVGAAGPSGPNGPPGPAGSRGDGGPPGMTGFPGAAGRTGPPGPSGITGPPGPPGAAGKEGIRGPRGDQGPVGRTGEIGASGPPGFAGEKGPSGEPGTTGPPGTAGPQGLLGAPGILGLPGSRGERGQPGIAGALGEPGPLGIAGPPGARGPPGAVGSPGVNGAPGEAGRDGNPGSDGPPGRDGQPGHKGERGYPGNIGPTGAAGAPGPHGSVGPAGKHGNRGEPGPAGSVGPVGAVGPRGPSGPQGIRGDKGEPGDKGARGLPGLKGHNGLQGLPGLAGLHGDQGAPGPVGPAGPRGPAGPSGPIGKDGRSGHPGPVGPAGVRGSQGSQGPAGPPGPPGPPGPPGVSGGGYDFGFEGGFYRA
# PROTOCOL DESCRIPTION: dried collagen assay, 5 uM each
READOUT LABEL: Rat binding (%)

Consider the worked cases shown below.
GQWTCSGDEYTWHCNY [Compound ID 823] ... 28
GQWSCTTRFPHHYCLYG [Compound ID 870] ... 28
GQWTCSGDEYTWHCAYE [Compound ID 839] ... 11
DWTCSGDEYRWHCNYE [Compound ID 845] ... 10
KKAWHCYTYFPHHYCVYG [Compound ID 1016] ... 50

(1) GQWACTTRFPHHYCLYG [Compound ID 876]
(2) GQWHCTTRFPHHYCAYG [Compound ID 855]
Sorting by Rat binding in descending order, would 1 or 2 appear first? Select an item and report its label.
1

(P) GKWHCTTYFPYHYCLYG [Compound ID 946]
(Q) GQWHCTDRFPHHYCLYG [Compound ID 936]
Sorting by Rat binding in descending order, would P or Q appear first? Select an item and report its label.
P

(a) KKYWHCYTYFPHHYCVYG [Compound ID 1018]
(b) GKWHCYTKFPHHYCVYYY [Compound ID 1010]
(c) GQWHCTKRFPHHYCLYG [Compound ID 940]
(d) GDWHCTTLFPHHYCLYG [Compound ID 910]
(e) GQWHCTTRFPHHTCLYG [Compound ID 905]
Order these by Rat binding, descending, and give the full ranking. Arrange the labels as the request states and list them.
b, a, c, e, d
